Below, each entry is listed alongside its reported G protein dissociation, AUC of 10 μM compound (maximal response).
# target.or.test.system: hCB1 mutant L404A^8.50 (Homo sapiens, UniProt P21554, L404A)
# Construct: expressed in transfected cells; host or cells: HEK293
# Sequence (P21554 whole entry L404A): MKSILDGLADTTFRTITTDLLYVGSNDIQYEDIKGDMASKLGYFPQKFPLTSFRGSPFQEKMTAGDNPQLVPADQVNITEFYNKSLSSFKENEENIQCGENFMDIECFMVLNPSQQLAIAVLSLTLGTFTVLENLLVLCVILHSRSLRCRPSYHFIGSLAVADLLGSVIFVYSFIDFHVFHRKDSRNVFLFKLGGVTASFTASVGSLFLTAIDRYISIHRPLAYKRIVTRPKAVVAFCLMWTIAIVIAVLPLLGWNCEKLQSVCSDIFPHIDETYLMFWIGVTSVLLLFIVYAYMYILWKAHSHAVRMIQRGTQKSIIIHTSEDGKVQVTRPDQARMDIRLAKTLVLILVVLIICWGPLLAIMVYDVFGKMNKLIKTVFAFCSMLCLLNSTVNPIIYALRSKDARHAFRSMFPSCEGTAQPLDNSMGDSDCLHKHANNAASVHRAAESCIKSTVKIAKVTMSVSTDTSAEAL
# protocol: pIRES G protein dissociation BRET assay, L404A mutant
# Type: cell-based
# condition.details: 10 μM ligand alone
endpoint: G protein dissociation, AUC of 10 μM compound (maximal response)

[[record]]
molecule = "O=[N+]([O-])C[C@@H](c1ccccc1)c1c(-c2ccccc2)[nH]c2ccccc12"
meas_value = "−88.9"

[[record]]
molecule = "O=[N+]([O-])C[C@H](c1ccccc1)c1c(-c2ccccc2)[nH]c2ccccc12"
meas_value = "−63.2"

[[record]]
molecule = "Cc1ccc2c(C(C[N+](=O)[O-])c3cccs3)c(-c3ccccc3)[nH]c2c1 (stereo not shown)"
meas_value = "−85.2"

[[record]]
molecule = "CCCCCCC(C)(C)c1ccc([C@@H]2C[C@H](O)CC[C@H]2CCCO)c(O)c1"
meas_value = "−110.3"


====

# target.or.test.system: hCB1 mutant F408A^8.54 (Homo sapiens, UniProt P21554, F408A)
# Construct: expressed in transfected cells; host or cells: HEK293
# Sequence (P21554 whole entry F408A): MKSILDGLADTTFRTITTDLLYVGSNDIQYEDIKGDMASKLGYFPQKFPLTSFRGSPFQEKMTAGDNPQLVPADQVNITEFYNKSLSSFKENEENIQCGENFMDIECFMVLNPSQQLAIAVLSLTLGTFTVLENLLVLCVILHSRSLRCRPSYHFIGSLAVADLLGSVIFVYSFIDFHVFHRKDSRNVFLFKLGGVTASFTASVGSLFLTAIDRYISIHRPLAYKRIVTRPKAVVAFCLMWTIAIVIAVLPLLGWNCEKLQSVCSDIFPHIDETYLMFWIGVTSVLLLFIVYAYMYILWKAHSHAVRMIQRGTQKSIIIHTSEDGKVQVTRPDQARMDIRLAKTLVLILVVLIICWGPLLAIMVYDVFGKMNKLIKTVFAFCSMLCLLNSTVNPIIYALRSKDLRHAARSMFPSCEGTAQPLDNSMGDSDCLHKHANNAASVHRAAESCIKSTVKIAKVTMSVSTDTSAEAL
# protocol: pIRES G protein dissociation BRET assay, F408A mutant
# Type: cell-based
# condition.details: 10 μM ligand alone
endpoint: G protein dissociation, AUC of 10 μM compound (maximal response)

[[record]]
molecule = "Cc1ccc2c(C(C[N+](=O)[O-])c3cccs3)c(-c3ccccc3)[nH]c2c1 (stereo not shown) [ZCZ011]"
meas_value = "−116.9"

[[record]]
molecule = "O=[N+]([O-])C[C@@H](c1ccccc1)c1c(-c2ccccc2)[nH]c2ccccc12 [GAT229]"
meas_value = "−110.0"

[[record]]
molecule = "CCCCCCC(C)(C)c1ccc([C@@H]2C[C@H](O)CC[C@H]2CCCO)c(O)c1 [CP55940]"
meas_value = "−131.7"

[[record]]
molecule = "O=[N+]([O-])C[C@H](c1ccccc1)c1c(-c2ccccc2)[nH]c2ccccc12 [GAT228]"
meas_value = "−90.3"


====

# target.or.test.system: hCB1 mutant R220A^3.56 (Homo sapiens, UniProt P21554, R220A)
# Construct: expressed in transfected cells; host or cells: HEK293
# Sequence (P21554 whole entry R220A): as the sequence (P21554 whole entry F408A) above, with R220A, A408F counted along it
# protocol: pIRES G protein dissociation BRET assay, R220A mutant
# Type: cell-based
# condition.details: 10 μM ligand alone
# Description: Mutagenesis studies using the pIRES G protein dissociation assay were performed using human embryonic kidney 293 (HEK293) wild-type cells transiently transfected with pplss-3HA-hCB1 [31] or modified receptor. All cells were cultured in Dulbecco’s Modified Eagle’s Medium (DMEM) supplemented with 10% fetal bovine serum (FBS), grown in […] vented-cap flasks, and maintained in a 37° C incubator at 5% CO2. […]
endpoint: G protein dissociation, AUC of 10 μM compound (maximal response)

[[record]]
molecule = "Cc1ccc2c(C(C[N+](=O)[O-])c3cccs3)c(-c3ccccc3)[nH]c2c1 (stereo not shown) [ZCZ011]"
meas_value = "−95.7 ± 7.7"

[[record]]
molecule = "CCCCCCC(C)(C)c1ccc([C@@H]2C[C@H](O)CC[C@H]2CCCO)c(O)c1 [CP55940]"
meas_value = "−112.1 ± 2.9"

[[record]]
molecule = "O=[N+]([O-])C[C@H](c1ccccc1)c1c(-c2ccccc2)[nH]c2ccccc12 [GAT228]"
meas_value = "−85.2 ± 13.6"

[[record]]
molecule = "O=[N+]([O-])C[C@@H](c1ccccc1)c1c(-c2ccccc2)[nH]c2ccccc12 [GAT229]"
meas_value = "−102.9 ± 9.9"

